Please go through the items and note down their Vd.
Experiment: Volume of distribution at steady state in Sprague-Dawley rat at 3 mg/kg, iv and 10 mg/kg, po
Format: ADME, organism-based
Conditions: in vivo, read-out: Vdss

Sample "O=C(O)CN1CCN(c2cc(-c3cnc4ccc(N5CCC[C@@H]5c5cccc(F)c5)nn34)ccn2)CC1" — what was its Vd? 2.4 L/kg

Another: "OC1CCN(c2cccc(-c3cnc4ccc(N5CCC[C@@H]5c5cccc(F)c5)nn34)n2)CC1" 2.3 L/kg

* * *

Test: Half life in Sprague-Dawley rat at 3 mg/kg, iv and 10 mg/kg, po
Type: ADME, organism-based
Settings: in vivo
ENDPOINT: half-life (min)
# output: bare number, implied unit min

Bench note: what half-life did "OC1CCN(c2cccc(-c3cnc4ccc(N5CCC[C@@H]5c5cccc(F)c5)nn34)n2)CC1" show? 49.8

Another compound: "O=C(O)CN1CCN(c2cc(-c3cnc4ccc(N5CCC[C@@H]5c5cccc(F)c5)nn34)ccn2)CC1" 54

* * *

Assay: Cmax in Wistar rat at 10 mg/kg, po
Format: ADME, organism-based
Parameters: dose 10 mg/kg, route oral
Details: in vivo
ENDPOINT: Cmax (nM)
# value in nM; strip the unit string

Which Cmax is reported for this compound? "OC1CCN(c2cc(-c3cnc4ccc(N5CCC[C@@H]5c5cccc(F)c5)nn34)ccn2)CC1" 215

* * *

Assay: Cmax in Sprague-Dawley rat at 10 mg/kg, po
Type: ADME, organism-based
Design: dose 10 mg/kg, route oral
Settings: in vivo
Could you please report measured Cmax for the items listed next?
Could you give me the number in nM? Just the number is fine.

What does the data say about its Cmax? Entry: "O=C(O)CN1CCN(c2cc(-c3cnc4ccc(N5CCC[C@@H]5c5cccc(F)c5)nn34)ccn2)CC1" 250

What do we get for "OC1CCN(c2cccc(-c3cnc4ccc(N5CCC[C@@H]5c5cccc(F)c5)nn34)n2)CC1" ? 110
